Below, each entry is listed with its recorded pKi.
assay.target: T1, NHERF-1 PDZ1 (human, UniProt O14745)
T1 chain: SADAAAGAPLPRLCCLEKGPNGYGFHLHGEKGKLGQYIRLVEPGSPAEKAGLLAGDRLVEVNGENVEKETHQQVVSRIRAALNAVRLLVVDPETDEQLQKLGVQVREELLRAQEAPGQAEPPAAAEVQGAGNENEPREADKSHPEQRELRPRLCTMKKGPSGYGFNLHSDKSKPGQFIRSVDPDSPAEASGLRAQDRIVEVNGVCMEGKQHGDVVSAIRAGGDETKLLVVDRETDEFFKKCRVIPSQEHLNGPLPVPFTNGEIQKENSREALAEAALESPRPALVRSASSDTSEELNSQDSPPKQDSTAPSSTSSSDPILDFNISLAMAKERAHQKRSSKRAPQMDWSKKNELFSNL
assay.procedure: FP, competition
pKi: −log10 of the molar value. Where no end group is shown, it is not given here.

Here are 2 binders together with their reported answers.
binder	measured.metric	test.result
ANSRLPTSK(Ac)I [ANSRLPTS[Ac-K]I]	pKi	< 2.30
ANSRLPTSKI [ANSRLPTS[K-AEBA]I]	pKi	< 2.30

Alright, here's another binder for you.
Incoming: Suppose we examine the binder ANSRLPTSII [iCAL42 ANSRLPTSII] ; what pKi value has been reported?
Outgoing: < 2.30
